I'd be grateful if you could share measured IC50 for these entries.
tested on: KYSE-450; experiment: cells; assay type: functional, cell-based; conditions: Homo sapiens;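 note: cell growth inhibition measured by a viability assay in human KYSE-450 cells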
Description: SANGER: Inhibition of human KYSE-450 cell growth in a cell viability assay.

Exercise: Provide only the value of recorded IC50 for `CN(C)CCOc1ccc(-c2nc(-c3ccncc3)c(-c3ccc4c(c3)CC/C4=N\O)[nH]2)cc1`
Key: > 5 µM

Exercise: Provide only the value of recorded IC50 for `O=C1NC(=O)c2c1c(-c1ccccc1Cl)cc1[nH]c3ccc(O)cc3c21`
Key: > 2 µM

Exercise: Provide only the value of recorded IC50 for `O=C(NCCCNc1nc(Nc2cccc(NC(=O)N3CCCC3)c2)ncc1I)c1cccs1`
Key: > 5 µM

// moving on: another record for IC50
Exercise: Provide only the value of recorded IC50 for `CCCCCCCCCCCC1=C(O)C(=O)C=C(O)C1=O`
Key: 17.7 µM

----------
tested on: COR-L23; assay: cells; type: functional, cell-based; details: Homo sapiens;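 note: cell viability assay measuring how strongly compounds suppress growth of COR-L23 cells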
Description: SANGER: Inhibition of human COR-L23 cell growth in a cell viability assay.
MEASUREMENT_LABEL: IC50

Exercise: Provide only the value of recorded IC50 for `NC(=O)c1ccc(N(C(N)=O)c2c(F)cccc2F)nc1-c1ccc(F)cc1F`
Key: > 2000 nM

Exercise: Provide only the value of recorded IC50 for `CC1=C(/C=C/C(C)=C/C=C/C(C)=C/C(=O)O)C(C)(C)CCC1`
Key: > 10000 nM

// moving on: another record for IC50
Exercise: Provide only the value of recorded IC50 for `NC(=O)Nc1cc(-c2cccc(F)c2)sc1C(=O)N[C@H]1CCCNC1`
Key: 403 nM

----------
system: NCI-H2452; test: cells; format: functional, cell-based; conditions: Homo sapiens;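 note: growth inhibition of NCI-H2452 cells, read out with a cell viability assay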
Description: SANGER: Inhibition of human NCI-H2452 cell growth in a cell viability assay.
pIC50: −log10 of the molar value.
I'd be grateful if you could share measured pIC50 for these entries.

# example entries with known answers
Exercise: Provide only the value of recorded pIC50 for `O=C(NCCCNc1nc(Nc2cccc(NC(=O)N3CCCC3)c2)ncc1I)c1cccs1`
Key: 5.32

Exercise: Provide only the value of recorded pIC50 for `Cc1ccc(-n2nc(C(C)(C)C)cc2NC(=O)Nc2ccc(OCCN3CCOCC3)c3ccccc23)cc1`
Key: < 5.00

Exercise: Provide only the value of recorded pIC50 for `NC1(c2ccc(-c3nc4ccn5c(=O)[nH]nc5c4cc3-c3ccccc3)cc2)CCC1`
Key: < 5.40

Please state pIC50 for every compound in the list that follows.
1. C/C(=C\c1csc(C)n1)[C@@H]1C[C@@H]2O[C@]2(C)CCC[C@H](C)[C@H](O)[C@@H](C)C(=O)C(C)(C)[C@@H](O)CC(=O)O1
2. COC(=O)[C@H](CCSC)NC(=O)c1ccc(NC[C@@H](N)CS)cc1-c1ccccc1

Key:
1. < 7.49
2. < 5.99

----------
I'd be grateful if you could share measured IC50 for these entries.
test system: RO82-W-1; test: cells; format: functional, cell-based; details: Homo sapiens;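 note: growth inhibition of human RO82-W-1 cells, measured with a cell viability assay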
Description: SANGER: Inhibition of human RO82-W-1 cell growth in a cell viability assay.

# example entries with known answers
Exercise: Provide only the value of recorded IC50 for `CN(C)CCOc1ccc(-c2nc(-c3ccncc3)c(-c3ccc4c(c3)CC/C4=N\O)[nH]2)cc1`
Key: > 5 µM

Exercise: Provide only the value of recorded IC50 for `O=S(=O)(O)c1ccc2cc(/N=N/c3cc(S(=O)(=O)O)c4cccnc4c3O)ccc2c1`
Key: > 16 µM

Exercise: Provide only the value of recorded IC50 for `O=C1NC(=O)c2c1c(-c1ccccc1Cl)cc1[nH]c3ccc(O)cc3c21`
Key: > 2 µM

Please state IC50 for every compound in the list that follows.
1. NC1(c2ccc(-c3nc4ccn5c(=O)[nH]nc5c4cc3-c3ccccc3)cc2)CCC1
2. CC1(C)CCC(c2ccc(Cl)cc2)=C(CN2CCN(c3ccc(C(=O)NS(=O)(=O)c4ccc(N[C@H](CCN5CCOCC5)CSc5ccccc5)c(S(=O)(=O)C(F)(F)F)c4)cc3)CC2)C1
3. C/C(=C\c1csc(C)n1)[C@@H]1C[C@@H]2O[C@]2(C)CCC[C@H](C)[C@H](O)[C@@H](C)C(=O)C(C)(C)[C@@H](O)CC(=O)O1
4. NC(=O)Nc1cc(-c2cccc(F)c2)sc1C(=O)N[C@H]1CCCNC1
5. O=C(NCCCNc1nc(Nc2cccc(NC(=O)N3CCCC3)c2)ncc1I)c1cccs1

Key:
> 4 µM
> 2 µM
> 0.032 µM
> 2 µM
4.34 µM

----------
I'd be grateful if you could share measured IC50 for these entries.
test system: NCI-H345; assay: cells; format: functional, cell-based, Homo sapiens; conditions: Homo sapiens, NCI-H345
Description: SANGER: Inhibition of human NCI-H345 cell growth in a cell viability assay.

# example entries with known answers
Exercise: Provide only the value of recorded IC50 for `Nc1ccccc1NC(=O)c1ccc(CNC(=O)OCc2cccnc2)cc1`
Key: 2330 nM

Exercise: Provide only the value of recorded IC50 for `Cc1cc(N2CCOCC2)cc2[nH]c(-c3c(NC[C@@H](O)c4cccc(Cl)c4)cc[nH]c3=O)nc12`
Key: > 5120 nM

Please state IC50 for every compound in the list that follows.
1. Cc1ccc(C(=O)Nc2ccc(CN3CCN(C)CC3)c(C(F)(F)F)c2)cc1C#Cc1cnc2cccnn12
2. CCCCCCCCCCCC1=C(O)C(=O)C=C(O)C1=O

Key:
["> 512 nM", "> 32000 nM"]

----------
I'd be grateful if you could share measured IC50 for these entries.
system: EW-11; assay: cells; type: functional, cell-based, Homo sapiens; conditions: Homo sapiens, EW-11
Description: SANGER: Inhibition of human EW-11 cell growth in a cell viability assay.

# example entries with known answers
Exercise: State the measured IC50 (EW-11) of `CN(NC(=O)CC(=O)NN(C)C(=S)c1ccccc1)C(=S)c1ccccc1`
Key: 4.9 nM

Exercise: State the measured IC50 (EW-11) of `C/C(=C\c1csc(C)n1)[C@@H]1C[C@@H]2O[C@]2(C)CCC[C@H](C)[C@H](O)[C@@H](C)C(=O)C(C)(C)[C@@H](O)CC(=O)O1`
Key: > 32 nM

Exercise: State the measured IC50 (EW-11) of `O=C1NC(=O)c2c1c(-c1ccccc1Cl)cc1[nH]c3ccc(O)cc3c21`
Key: > 2000 nM

Exercise: State the measured IC50 (EW-11) of `COc1cc(N2CCC(N3CCN(C)CC3)CC2)ccc1Nc1ncc(Cl)c(Nc2ccccc2S(=O)(=O)C(C)C)n1`
Key: > 2000 nM

// moving on: another record for IC50
Exercise: State the measured IC50 (EW-11) of `O=C(NCCCNc1nc(Nc2cccc(NC(=O)N3CCCC3)c2)ncc1I)c1cccs1`
Key: > 5000 nM

----------
tested on: LCLC-103H cell line; assay: cells; assay type: functional, cell-based; settings: Homo sapiens
Description: SANGER: Inhibition of human LCLC-103H cell growth in a cell viability assay.
pIC50: −log10 of the molar value.
MEASUREMENT_LABEL: pIC50

# example entries with known answers
Exercise: Provide only the value of recorded pIC50 for `OC[C@H](Cc1ccccc1)Nc1nc(Oc2ccc3c(c2)CCC3)nc2c1ncn2Cc1ccc(-c2ccccc2)cc1`
Key: < 4.99

Exercise: Provide only the value of recorded pIC50 for CC1=C(/C=C/C(C)=C/C=C/C(C)=C/C(=O)O)C(C)(C)CCC1 [TRETINOIN]
Key: < 5.00

Exercise: Provide only the value of recorded pIC50 for CN(NC(=O)CC(=O)NN(C)C(=S)c1ccccc1)C(=S)c1ccccc1 [ELESCLOMOL]
Key: < 6.70

// moving on: another record for pIC50
Exercise: Provide only the value of recorded pIC50 for CC1(C)CCC(c2ccc(Cl)cc2)=C(CN2CCN(c3ccc(C(=O)NS(=O)(=O)c4ccc(N[C@H](CCN5CCOCC5)CSc5ccccc5)c(S(=O)(=O)C(F)(F)F)c4)cc3)CC2)C1 [NAVITOCLAX]
Key: < 5.70

----------
system: Ca9-22; test: cells; format: functional, cell-based; conditions: Homo sapiens
Description: SANGER: Inhibition of human Ca9-22 cell growth in a cell viability assay.
MEASUREMENT_LABEL: pIC50
Numbers only, as −log10 of the molar value.

Exercise: Provide only the value of recorded pIC50 for NC(=O)Nc1cc(-c2cccc(F)c2)sc1C(=O)N[C@H]1CCCNC1 [AZD-7762]
Key: 6.27

---
Exercise: Provide only the value of recorded pIC50 for C/C(=C\c1csc(C)n1)[C@@H]1C[C@@H]2O[C@]2(C)CCC[C@H](C)[C@H](O)[C@@H](C)C(=O)C(C)(C)[C@@H](O)CC(=O)O1 [PATUPILONE]
Key: 8.95

----------
I'd be grateful if you could share measured IC50 for these entries.
test system: NCI-H23; test: cells; assay type: functional, cell-based, Homo sapiens; details: Homo sapiens, NCI-H23;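 note: cell viability assay measuring growth inhibition of NCI-H23 cells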
Description: SANGER: Inhibition of human NCI-H23 cell growth in a cell viability assay.

Exercise: Provide only the value of recorded IC50 for `NC(=O)c1ccc(N(C(N)=O)c2c(F)cccc2F)nc1-c1ccc(F)cc1F`
Key: > 2000 nM

Please state IC50 for every compound in the list that follows.
1. CC1(C)CCC(c2ccc(Cl)cc2)=C(CN2CCN(c3ccc(C(=O)NS(=O)(=O)c4ccc(N[C@H](CCN5CCOCC5)CSc5ccccc5)c(S(=O)(=O)C(F)(F)F)c4)cc3)CC2)C1
2. C/C(=C\c1csc(C)n1)[C@@H]1C[C@@H]2O[C@]2(C)CCC[C@H](C)[C@H](O)[C@@H](C)C(=O)C(C)(C)[C@@H](O)CC(=O)O1
3. NC(=O)Nc1cc(-c2cccc(F)c2)sc1C(=O)N[C@H]1CCCNC1
4. O=S(=O)(O)c1ccc2cc(/N=N/c3cc(S(=O)(=O)O)c4cccnc4c3O)ccc2c1

Key:
1. > 2000 nM
2. 23.8 nM
3. 248 nM
4. > 16000 nM

Please state IC50 for every compound in the list that follows.
1. OC[C@H](Cc1ccccc1)Nc1nc(Oc2ccc3c(c2)CCC3)nc2c1ncn2Cc1ccc(-c2ccccc2)cc1
2. NC(=O)c1cccc(-c2cc(Nc3ccc(OC(F)(F)F)cc3)ncn2)c1

Key:
> 10200 nM
> 1280 nM
